ASSAY_PROTOCOL: chemical genetic growth profiling, strain panel (AID 1159580);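 further: tested at 20 µM; growth read once vehicle control cultures reached saturation at 30 °C; 1 = growth at the plate median or of vehicle wells; lower values mean less growth of the strain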
EXPERIMENTAL_PARAMETERS: S. cerevisiae deletion strains, growth OD, locus YDR001C, strain nth1, hits give low values
Among all 5,500 compounds or so, about 2,000 (36%) were called active. Not shown: some 18% with an inconclusive outcome. The list shows a part of the results.

MOLECULE	normalized growth
C/C=C/c1ccc2c(c1)OCO2	1
CC(=O)O[C@H]1C[C@@H](OC(C)=O)C(C)(C)C2C[C@@H](OC(C)=O)[C@@]3(C)C4=CC(=O)O[C@@H](c5ccoc5)[C@]4(C)CCC3[C@]21C (stereo partly drawn)	1
CCCC(C)C1(CC)C(=O)N=C(S)NC1=O (stereo not drawn)	1
CC(C)=CCC/C(C)=C/CC/C(C)=C/CC/C(C)=C/CC/C(C)=C/CC/C(C)=C/CC/C(C)=C/CC/C(C)=C/CC/C(C)=C/CO	0.99
O=C1O[C@H](C(O)CO)C(O)=C1O (stereo partly drawn)	0.99
O=C(O)C1=CCNCC1	1.01
COC(C)(C)CCC[C@H](C)C/C=C/C(C)=C/C(=O)OC(C)C	1.02
O=C1C=CC2=C3c4cc(O)c(O)cc4CC3(O)COC2=C1O (stereo not drawn)	1.04
C[C@H](N)[C@H](O)c1ccc(O)c(O)c1	1.01
CC(C)=CCC[C@](C)(O)C1CC=C(C)CC1 (stereo partly drawn)	0.994
O=C(OC1Cc2c(O)cc(O)cc2OC1c1cc(O)c(O)c(O)c1-c1c(C2Oc3cc(O)cc(O)c3CC2OC(=O)c2cc(O)c(O)c(O)c2)cc(O)c(O)c1O)c1cc(O)c(O)c(O)c1 (stereo not drawn)	1.02
Cc1occc(=O)c1O	0.953
NCCCC[C@H](N[C@@H](CCc1ccccc1)C(=O)O)C(=O)N1CCC[C@H]1C(=O)O	1.01
CCN(CC)CCNC(=O)c1cc(S(C)(=O)=O)ccc1OC	0.953
CCC(Cc1c(I)cc(I)c(N)c1I)C(=O)O (stereo not drawn)	0.927
CN(C)CCOc1ccc(/C(=C(/CCCl)c2ccccc2)c2ccccc2)cc1	0.0873
COc1cc(C(=O)NCc2ccc(OCCN(C)C)cc2)cc(OC)c1OC	1
CC(C)NCC(O)c1ccc(O)c(O)c1 (stereo not drawn)	0.992
COC(=O)C[C@H]1C(C)(C)C(=O)[C@@H]2CC3=C4CC(=O)O[C@@H](c5ccoc5)[C@]4(C)CCC3[C@@]1(C)C2=O (stereo partly drawn)	0.982
CNC[C@@H](O)c1ccc(O)c(O)c1	1.01
C=CC(C1=CC(=O)C(OC)=CC1=O)c1ccccc1 (stereo not drawn)	0.983
C=C[C@@H](C1=CC(=O)C(OC)=C(OC)C1=O)c1ccccc1	0.997
C=CC(C1=CC(=O)C(OC)=CC1=O)c1ccc(O)cc1 (stereo not drawn)	1.01
Cc1c(O)c(O)cc2c1CC=C1[C@@]2(C)CC[C@@]2(C)C3C[C@](C)(C(=O)O)CC[C@]3(C)CC[C@]12C (stereo partly drawn)	0.766
O[N+]1=CC=CCC1=S.On1ccccc1=S.[Zn]	0.0598
OC[C@@H]1CCCN2CCCC[C@H]12	1.02
O=[N+]([O-])c1cc(O)c(O)c([N+](=O)[O-])c1	0.998
Nc1ncn([C@@H]2O[C@H](CO)[C@@H](O)[C@H]2O)c(=O)n1	0.984
O=C(O)CCCCC1CCSS1 (stereo not drawn)	0.971
O=c1[nH]c(=O)n(C2C[C@@H](O)[C@@H](CO)O2)cc1F (stereo partly drawn)	0.979
C=CC(C1=CC(=O)C(OC)=CC1=O)c1ccc(OC)cc1 (stereo not drawn)	0.982
C=C(NC(=O)C(=C)NC(=O)c1csc(C2=NC3c4csc(n4)C4NC(=O)c5csc(n5)C(C(C)(O)C(C)O)NC(=O)C5CSC(=N5)C(=CC)NC(=O)C(C(C)O)NC(=O)c5csc(n5)C3(CC2)NC(=O)C(C)NC(=O)C(=C)NC(=O)C(C)NC(=O)C(C(C)CC)NC2C=Cc3c(C(C)O)cc(nc3C2O)C(=O)OC4C)n1)C(N)=O (stereo not drawn)	1.01
COc1c2c(cc3c1OCO3)CCN(C)C2	1.01
O=[N+]([O-])c1ccc(O)c([N+](=O)[O-])c1	0.766
CCN(CC)CCOc1ccc(/C(=C(\Cl)c2ccccc2)c2ccccc2)cc1	0.216
CC(=O)NCCCS(=O)(=O)O	1.01
CCCCC(CC)CN1CN(CC(CC)CCCC)CC(C)(N)C1 (stereo not drawn)	0.0567
Nc1ccc([As](=O)(O)O)cc1	0.992
CCN(CC)CCOc1ccc2c(c1)C(=O)c1cc(OCCN(CC)CC)ccc1-2	0.979
C=C(C)C1CC=C(CO)CC1 (stereo not drawn)	0.963
O=C(NC(=O)c1c(F)cccc1F)Nc1ccc(Cl)cc1	1.02
O=C1C=CC2=C3c4cc(O)c(O)cc4C[C@@]3(O)COC2=C1	0.978
Cc1ccsc1/C=C/C1=NCCCN1C	0.996
